Origin of values: the supplement of paper PMC9170038

# Test system: MS2 coat protein
# Experiment notes: apparent KD of MS2 coat protein; higher = weaker reporter binding
# Reported conditions: Eterna round: R107; input ligand: theophylline 20 uM
Provide the reported apparent KD of MS2 coat protein of each item.

Ask | For UCGCUCUGGGUGAAUCCCAGAGAUGUGGAAGGAGCGGACGAAAGUCCAGGUAGGUCGCCAUCGAACAUGAGGAUCACCCAUGUAC [Same State - Arginine A (Freestyle 26)] , what is its reported apparent KD of MS2 coat protein?
Reply | 77.5 nM

Ask | I'd like to know its apparent KD of MS2 coat protein. The sequence in question is UGUCAUGGAAACAUGACAGGUUCUACCGGUCGAGGACCGGUACGGCCGCCACUCGAUUGGUGGCACAUGAGGAUCACCCAUGUUA [SS Tryp A #15]
Reply | 39.6 nM

Ask | What apparent KD of MS2 coat protein value was documented for this sequence, CUCUGAGUGAGUAAUCACUCAGAGGCGGAUACCAGCGAGGUCCAUCGCCCUUGGCAGCCGAACAUGAGGAUCACCCAUGUCGGUA [#1 Same State - Theophylline A Attempt #24 (HarryS)] ?
Reply | 12.2 nM

* * *

# System: MS2 coat protein
# Experiment notes: apparent KD of MS2 coat protein; designed switch direction (-1 OFF switch, 1 ON switch): 1; higher = weaker reporter binding
# Reported conditions: input ligand: none
Measured attribute: apparent KD of MS2 coat protein (nM)
Kindly answer with a numeric value in nM, unit omitted.

Ask | Reported apparent KD of MS2 coat protein for MS2 coat protein, given UUUAGCGUUACAGGAUAUGGUGAGGAUUACCCACUAGAAGGGUAAACAUGUGCGUCGUACAUGAGGAUCACCCAUGUAGGGCGU (Eterna round: R96, puzzle: Same State NG 1) ?
Reply | 20.6

Ask | Report apparent KD of MS2 coat protein for CUGAGCGAUUAAGGAUAUCACGUCGAAUAGACGUGAGAAGGUGAUCAUAACAUGAGGAUCACCCAUGUAUUACAUGAAGCUCAG [SSNG1/3-A1] (Eterna round: R96, puzzle: Same State NG 1) tested on MS2 coat protein.
Reply | 108

Ask | Lab note: need apparent KD of MS2 coat protein with MS2 coat protein for entry GGUGCGAAUAAAGCCUACAUGAGGAUCACCCAUGUAUGUAGGCAGGAUAUCGUUUGCAAAGCAAACGAGAAGGGCUGACGCACC [Mat - Same State NG 3 - JL Mod - D49] (Eterna round: R96, puzzle: Same State NG 3) , please look it up.
Reply | 62.4

Ask | Could you share what apparent KD of MS2 coat protein was measured for UGAUCGCUUGGAGGAUAUCCAACUAUCCUAGUUGGAGAAGGCCAAGCUACAGAGCUAAGCUUGGAAGUCACUUCGAAUCAACAC [pwkr ssNG1 F9.4] (Eterna round: R96, puzzle: Same State NG 1) , tested on MS2 coat protein?
Reply | 155

Ask | Notebook entry, MS2 coat protein assay: apparent KD of MS2 coat protein of GGUGCAAUAAACGCCUACAUGAGGAUCACCCAUGUAUGUAGGCAGGAUAUCGUUUGCAAAGCAAACGAGAAGGGCUGUAGUACC [Mat - Same State NG 3 - JL Mod - D41] (Eterna round: R96, puzzle: Same State NG 3) = ?
Reply | 142

Ask | Item: AGGAUGAGAACAGGAUAUUCGACAUGAGGAUCACCCAUGUGGCAAGUAGGUGACGAUGAAUGACGGAAGAAGGGUUACGAGGAG [Same State NG2] (Eterna round: R96, puzzle: Same State NG 2) Test system: MS2 coat protein Read-out: apparent KD of MS2 coat protein Value: ?
Reply | 199

Ask | What reported apparent KD of MS2 coat protein corresponds to UGAAUAUUUACAGGAUAUGAGUUGUAUAGUGGAUCAGAAGGGUGGGUGUUUUGCACGGUGUGUUACAUGAGGAUCACCCAUGUU [SameState NG1 #26] (Eterna round: R96, puzzle: Same State NG 1) on MS2 coat protein?
Reply | 196

Ask | Checklist item: apparent KD of MS2 coat protein tested on MS2 coat protein, entry ACAUGAGAUGGAGGAUAUGUUGUACCUACAUGUGACAUGAGGAUCACCCAUGUGGUAAGUAUGAUACAGAAGGCCAAGAUAUGU [Equivalance 59 - Jieux - Same State NG 2] (Eterna round: R96, puzzle: Same State NG 2) , value?
Reply | 27.2

Ask | Return apparent KD of MS2 coat protein measured with MS2 coat protein given this sequence: GUAACAUGACGAGGAUAUGGAACAUGAGGAUCACCCAUGUAUGUUCCAUAACGCGAAUAAAGAAUCCAGAAGGCGUCGUGAAAU [Mat - Same State NG 2 - JL mod - D33] (Eterna round: R96, puzzle: Same State NG 2)
Reply | 120
